Test system: Staphylococcus aureus A798
Assay: Bacterial growth minimal inhibitory concentration, microdilution
Format: cell-based
Details: multiply-resistant, quinolone-resistant strain, cation-adjusted Mueller Hinton Broth, read-out: MIC for S. aureus A798
parameter: MIC (µg/mL)
One number for each entry, in µg/mL.

O=C1CSc2ccc(CN[C@H]3CC[C@H](Nc4nc5c(cc4F)c(=O)c(C(=O)O)cn5C4CC4)CC3)nc2N1 ... 4
O=C1CSc2ccc(CNC3CCN(c4nc5c(cc4F)c(=O)c(C(=O)O)cn5C4CC4)CC3)nc2N1 ... 4

Provide the reported MIC of each entry below, same order.
1. CCn1cc(C(=O)O)c(=O)c2cc(F)c(N[C@H]3CC[C@H](CNCc4ccc5c(n4)NC(=O)CS5)CC3)nc21
2. Cn1cc(C(=O)O)c(=O)c2cc(F)c(N[C@H]3CC[C@H](CNCc4ccc5c(n4)NC(=O)CO5)CC3)nc21
3. O=C1CSc2ccc(CNCCN3CCN(c4cc5c(cc4F)c(=O)c(C(=O)O)cn5C4CC4)CC3)nc2N1
4. Cn1cc(C(=O)O)c(=O)c2cc(F)c(N[C@H]3CC[C@H](CNCc4ccc5c(n4)NC(=O)CS5)CC3)nc21
5. O=C1CSc2ccc(CNCCC3CCN(c4nc5c(cc4F)c(=O)c(C(=O)O)cn5C4CC4)CC3)nc2N1
6. Cn1cc(C(=O)O)c(=O)c2cc(F)c(N3CCC(CCNCc4ccc5c(n4)NC(=O)CS5)CC3)nc21
7. O=C1CSc2ccc(CNC[C@H]3CC[C@H](Nc4nc5c(cc4F)c(=O)c(C(=O)O)cn5C4CC4)CC3)nc2N1

1
8
8
1
8
0.5
1

Provide the reported MIC of each entry below, same order.
1. O=C1CSc2ccc(CNC3CCN(CCc4nc5c(cc4F)c(=O)c(C(=O)O)cn5C4CC4)CC3)nc2N1
2. Cn1cc(C(=O)O)c(=O)c2cc(F)c(N3CCC(CCNCc4ccc5c(n4)NC(=O)CO5)CC3)nc21

1. 2
2. 2
